Hello, the source for this data is patent US20020019527A1, in case you need it.

# target or system: Farnesyltransferase (FTase) (Bos taurus, UniProt P29702+P49355)
# Construct: precipitation from a beef brain homogenate; from tissue; host or cells: bovine brain
# assay info: Farnesyltransferase inhibition (scintillation proximity assay, [3H]-FPP / biotin-K-ras peptide)
# Type: biochemical, bovine
reported metric: % Inhibition at 10^−6M (%)
Dear colleague, please return just the value in %, with no unit written.

Recorded % Inhibition at 10^−6M, per entry:
{"columns": ["compound", "target or system", "unit", "recorded result"],
 "data": [
  ["Cc1ccccc1-c1cc(C(OCc2ccccc2[N+](=O)[O-])c2cncn2C)ccc1C#N.Cl (stereo not shown)", "Farnesyltransferase (FTase) (Bos taurus, UniProt P29702+P49355)", "%", 94],
  ["Cc1ccccc1-c1cc(C(NCc2ccc([N+](=O)[O-])cc2)c2cncn2C)ccc1C#N (stereo not shown)", "Farnesyltransferase (FTase) (Bos taurus, UniProt P29702+P49355)", "%", 100],
  ["Cc1ccccc1-c1cc(C(OCc2ccc([N+](=O)[O-])cc2)c2cncn2C)ccc1C#N.Cl (stereo not shown)", "Farnesyltransferase (FTase) (Bos taurus, UniProt P29702+P49355)", "%", 96]
]}

[ask] // % Inhibition at 10^−6M lookup, key: Cc1ccccc1-c1cc(C(OCc2ccc(C(F)(F)F)cc2)c2cncn2C)ccc1C#N.Cl (stereo not shown)
[reply] 97

[ask] // % Inhibition at 10^−6M lookup, key: Cc1cccc(COC(c2ccc(C#N)c(-c3ccccc3C)c2)c2cncn2C)c1.Cl (stereo not shown)
[reply] 94

[ask] // % Inhibition at 10^−6M lookup, key: Cc1ccccc1-c1cc(C(OCc2cc([N+](=O)[O-])cc3c2OCOC3)c2cncn2C)ccc1C#N.Cl (stereo not shown)
[reply] 96

[ask] // % Inhibition at 10^−6M lookup, key: Cc1ccccc1-c1cc(C(OCc2ccc(S(C)(=O)=O)cc2)c2cncn2C)ccc1C#N.Cl (stereo not shown)
[reply] 94

[ask] // % Inhibition at 10^−6M lookup, key: Cc1ccccc1-c1cc(C(OCc2ccc(OC(F)(F)F)cc2)c2cncn2C)ccc1C#N.Cl (stereo not shown)
[reply] 95

[ask] // % Inhibition at 10^−6M lookup, key: Cc1ccccc1-c1cc(C(OCc2c(C)c(C)cc(C)c2C)c2cncn2C)ccc1C#N.Cl (stereo not shown)
[reply] 93

[ask] // % Inhibition at 10^−6M lookup, key: Cc1ccccc1-c1cc(C(OCc2cccc3cccnc23)c2cncn2C)ccc1C#N.Cl (stereo not shown)
[reply] 93
